Measurement Target: Orx2 (Homo sapiens, UniProt O43614)
Construct: DiscoverX
Sequence (O43614 whole entry): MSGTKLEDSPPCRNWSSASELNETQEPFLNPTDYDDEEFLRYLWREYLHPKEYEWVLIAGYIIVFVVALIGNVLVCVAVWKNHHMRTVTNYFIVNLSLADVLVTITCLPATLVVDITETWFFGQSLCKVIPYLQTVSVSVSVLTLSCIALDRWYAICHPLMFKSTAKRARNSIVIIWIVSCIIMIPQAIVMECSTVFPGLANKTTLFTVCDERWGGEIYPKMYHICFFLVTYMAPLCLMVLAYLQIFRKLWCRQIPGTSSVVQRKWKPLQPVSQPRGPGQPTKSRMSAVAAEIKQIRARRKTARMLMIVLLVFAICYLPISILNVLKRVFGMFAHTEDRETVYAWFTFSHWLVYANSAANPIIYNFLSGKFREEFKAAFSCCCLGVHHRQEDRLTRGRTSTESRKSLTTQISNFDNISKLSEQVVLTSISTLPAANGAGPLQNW
Assay Remarks: Orx2 antagonist screening, chemiluminescent cell assay with Orexin B EC80
Cond: antagonist mode against Orexin B EC80; read-out: Relative IC50 of Orx2

{"Compound": "COc1ccc(C(=O)CCc2ccc(O)cc2)c(O)c1 [Compound 16]", "Unit String": "µM", "IC50": 381}
{"Compound": "O=C(CCc1ccc(O)cc1)c1ccc(OC2OC(CO)C(O)C(O)C2O)cc1O (stereo not drawn) [Compound 19]", "Unit String": "µM", "IC50": 319}
{"Compound": "O=c1cc(-c2ccc(O)c(O)c2)oc2cc(O)cc(O)c12 [Compound 13]", "Unit String": "µM", "IC50": 72.5}

====

% Cell viability at IC50 values, listed per item
Test system: cells
Assay Remarks: cell viability, XTT assay
Assay type: cell-based
Cond: at the IC50 μM concentration of the compound

{"Molecule": "COc1c(O)cc2oc(-c3ccc(O[C@@H]4O[C@H](C(=O)O)[C@@H](O)[C@H](O)[C@H]4O)c(O)c3)c(OC)c(=O)c2c1O", "% Cell viability at IC50": "107.58%"}
{"Molecule": "C[C@@H]1O[C@@H](OC[C@H]2O[C@@H](Oc3c(-c4ccc(O)c(O)c4)oc4cc(O)cc(O)c4c3=O)[C@H](O)[C@@H](O)[C@@H]2O)[C@H](O)[C@H](O)[C@H]1O", "% Cell viability at IC50": "103.46%"}
{"Molecule": "O=C(O)[C@H]1O[C@@H](Oc2c(-c3ccc(O)cc3)oc3cc(O)cc(O)c3c2=O)[C@H](O)[C@@H](O)[C@@H]1O", "% Cell viability at IC50": "83.58%"}
{"Molecule": "O=c1c(O[C@@H]2O[C@@H](CO)[C@H](O)[C@H]2O)c(-c2ccc(O)cc2)oc2cc(O)cc(O)c12", "% Cell viability at IC50": "101.69%"}
{"Molecule": "O=c1c(O)c(-c2ccc(O)cc2)oc2cc(O)cc(O)c12", "% Cell viability at IC50": "80.39%"}
{"Molecule": "O=C(CCc1ccc(O)cc1)c1ccc(O)cc1OC1OC(CO)C(O)C(O)C1O (stereo not drawn)", "% Cell viability at IC50": "89.87%"}
{"Molecule": "C[C@@H]1O[C@@H](O[C@H]2[C@H](Oc3c(-c4ccc(O)cc4)oc4cc(O)cc(O)c4c3=O)O[C@H](CO)[C@@H](O)[C@@H]2O)[C@H](O)[C@H](O)[C@H]1O", "% Cell viability at IC50": "107.68%"}
{"Molecule": "O=c1c(O[C@@H]2OC[C@H](O)[C@H](O)[C@H]2O)c(-c2ccc(O)cc2)oc2cc(O)cc(O)c12", "% Cell viability at IC50": "98.95%"}
{"Molecule": "COc1c(O)cc2oc(-c3ccc(O)cc3)c(OC)c(=O)c2c1O", "% Cell viability at IC50": "94.58%"}
{"Molecule": "COc1cc(-c2oc3c(OC)c(O[C@@H]4O[C@H](COC(C)=O)[C@@H](O)[C@H](O)[C@H]4O[C@@H]4O[C@@H](C)[C@H](O)[C@@H](O)[C@H]4O)cc(O)c3c(=O)c2O)ccc1O", "% Cell viability at IC50": "91.68%"}
{"Molecule": "COc1ccc(C(=O)CCc2ccc(O)cc2)c(O)c1", "% Cell viability at IC50": "85.11%"}
{"Molecule": "O=C(CCc1ccc(O)cc1)c1ccc(OC2OC(CO)C(O)C(O)C2O)cc1O (stereo not drawn)", "% Cell viability at IC50": "86.12%"}
{"Molecule": "Cc1cc(O)c2c(c1)C(=O)c1cc(O)cc(O[C@@H]3O[C@H](CO)[C@@H](O)[C@H](O)[C@H]3O)c1C2=O", "% Cell viability at IC50": "100%"}
{"Molecule": "O=c1cc(-c2ccc(O)c(O)c2)oc2cc(O)cc(O)c12", "% Cell viability at IC50": "98.24%"}
{"Molecule": "CC1O[C@@H](OC2C(O)[C@H](Oc3c(-c4ccc(O)cc4)oc4cc(O)cc(O)c4c3=O)OC(CO)[C@H]2O)[C@@H](O)C(O)[C@H]1O (stereo partly drawn)", "% Cell viability at IC50": "96.12%"}
